I'd be grateful if you could share measured MIC for these entries.
test system: S. aureus 481; assay: MIC, hospital methicillin-resistant strains (MRSA); conditions: hospital MRSA strain S. aureus 481
Answers are plain numbers, in µg/mL.

Some compounds with recorded MIC:
| Compound | Unit spec | MIC |
| --- | --- | --- |
| O.O=[N+]([O-])c1cc(NC(=S)[N-]c2cccc(C(F)(F)F)c2)ccc1Cl.O=[N+]([O-])c1cc(NC(=S)[N-]c2cccc(C(F)(F)F)c2)ccc1Cl.[Cu+2] [Cu5] | µg/mL | 2 |
| FC(F)(F)c1cccc([N-]C(=S)NCc2ccccc2)c1.FC(F)(F)c1cccc([N-]C(=S)NCc2ccccc2)c1.[Cu+2] [Cu3] | µg/mL | 64 |

Answer for every listed entry: what is its MIC? The entries follow.
1. FC(F)(F)c1cccc([N-]C(=S)NCCc2ccccc2)c1.FC(F)(F)c1cccc([N-]C(=S)NCCc2ccccc2)c1.O.[Cu+2] [Cu1]
2. FC(F)(F)c1cccc([N-]C(=S)Nc2cccc(Br)c2)c1.FC(F)(F)c1cccc([N-]C(=S)Nc2cccc(Br)c2)c1.[Cu+2] [Cu4]
3. CC(NC(=S)[N-]c1cccc(C(F)(F)F)c1)c1ccccc1.CC(NC(=S)[N-]c1cccc(C(F)(F)F)c1)c1ccccc1.[Cu+2] (racemic) [Cu2]

Out:
[64, 8, 16]
